biological target: P99 β-lactamase (class C) (Enterobacter cloacae, UniProt P05364); assay: biochemical
Sequence (P05364 21-381): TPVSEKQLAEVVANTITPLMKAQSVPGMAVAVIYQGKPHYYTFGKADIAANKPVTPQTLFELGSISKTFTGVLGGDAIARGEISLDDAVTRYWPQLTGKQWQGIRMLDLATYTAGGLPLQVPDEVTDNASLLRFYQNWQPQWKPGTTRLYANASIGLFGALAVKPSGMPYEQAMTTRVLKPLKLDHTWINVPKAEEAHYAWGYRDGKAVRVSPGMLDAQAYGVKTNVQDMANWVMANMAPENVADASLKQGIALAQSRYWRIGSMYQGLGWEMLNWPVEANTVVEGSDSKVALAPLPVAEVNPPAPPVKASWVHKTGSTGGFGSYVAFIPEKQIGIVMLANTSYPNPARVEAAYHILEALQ
Where a name gives a salt, the structure may show the parent alone.
PARAMETER MEASURED: IC50 (µM)

{"COMPOUND": "O=[N+]([O-])c1ccc(OP(=O)(O)CNS(=O)(=O)c2ccccn2)cc1", "ENDPOINT VALUE": 136}
{"COMPOUND": "CC(C)C(NS(=O)(=O)c1cccs1)P(=O)(O)Oc1ccc([N+](=O)[O-])cc1 (stereo not shown) [Compound 52, ammonium salt]", "ENDPOINT VALUE": 1400}
{"COMPOUND": "N.O=P(O)(Oc1cccnc1Cl)C(NS(=O)(=O)c1cccs1)c1ccccc1 (stereo not shown) [Compound 60, ammonium salt]", "ENDPOINT VALUE": 603}
{"COMPOUND": "N.O=[N+]([O-])c1ccc(OP(=O)(O)C(Cc2ccccc2)NS(=O)(=O)c2cccs2)cc1 (stereo not shown) [Compound 44, ammonium salt]", "ENDPOINT VALUE": 192}
{"COMPOUND": "CN(C)c1cccc(OP(=O)(O)CNS(=O)(=O)c2cccs2)c1", "ENDPOINT VALUE": 3000}
{"COMPOUND": "O=[N+]([O-])c1ccc(OP(=O)(O)CN(Cc2ccccc2)S(=O)(=O)c2cc3ccccc3s2)cc1 [Compound 145, ammonium salt]", "ENDPOINT VALUE": 94}
{"COMPOUND": "O=[N+]([O-])c1ccc(OP(=O)(O)CNS(=O)(=O)c2cc3ccccc3s2)cc1", "ENDPOINT VALUE": 0.4}

====

assay: physchem
Counter-ions that a name gives are not always drawn.
Collected logP values appear next to each entry.
PARAMETER MEASURED: logP

{"MOLECULE": "O=[N+]([O-])c1ccc(OP(=O)(O)CN(Cc2ccccc2)S(=O)(=O)c2cc3ccccc3s2)cc1 [Compound 145, ammonium salt]", "ENDPOINT VALUE": 0.86}
{"MOLECULE": "CN(CP(=O)(O)Oc1ccc([N+](=O)[O-])cc1)S(=O)(=O)c1cc2ccccc2s1.N [Compound 142, ammonium salt]", "ENDPOINT VALUE": -0.091}
{"MOLECULE": "O=[N+]([O-])c1ccc(OP(=O)(O)CNS(=O)(=O)c2cc3c(Cl)ccc(Cl)c3s2)cc1 [Compound 128, ammonium salt]", "ENDPOINT VALUE": 0.45}

====

target: P99 β-lactamase (class C) (Enterobacter cloacae); test: biochemical; settings: Class C β-lactamase [P99]; Table 1; read-out: IC50 (μM) “C”
PARAMETER MEASURED: IC50 (µM)

{"MOLECULE": "O=[N+]([O-])c1ccc(OP(=O)(O)NNS(=O)(=O)c2ccccc2)cc1 [compound 189]", "ENDPOINT VALUE": 62}

====

molecular target: P99 β-lactamase (class C) (Enterobacter cloacae); assay: biochemical
pIC50: −log10 of the molar value. Structures can show the parent of a compound that is named as a salt.

{"COMPOUND": "O=[N+]([O-])c1ccc(OP(=O)(O)CNS(=O)(=O)c2ccccc2Br)cc1 [compound 23]", "pIC50": 4.85}
{"COMPOUND": "O=[N+]([O-])c1ccc(OP(=O)(O)CNS(=O)(=O)c2cc3c(Cl)ccc(Cl)c3s2)cc1 [Compound 128, ammonium salt]", "pIC50": 7.00}
{"COMPOUND": "O=P(O)(CNS(=O)(=O)c1cccs1)Oc1cccc(Cl)c1 [compound 48]", "pIC50": 3.72}
{"COMPOUND": "O=[N+]([O-])c1ccc(OP(=O)(O)CNS(=O)(=O)c2ccc([N+](=O)[O-])cc2)cc1 [compound 12]", "pIC50": 5.00}
